Reference for the values: ChEMBL document CHEMBL4689842

- Tested on: HEK-293T
- method: Multiplex assay against HEK293T
- Format: toxicity, cell-based
- measurement-parameters: human, 48 h, 1 µM, compound concentration 1 uM, replicate 2
Mark Met for Population Pyknosed Nuclei (%) under 20%, Not met if at or over.

Lab note: confirm whether the reported Population Pyknosed Nuclei (%) for this compound is below 20%, equality not counting. compound: `S=C(NCCCc1c[nH]cn1)NCCCN(Cc1ccc(Cl)c(Cl)c1)c1ccc(Br)cn1`
Not met

Lab note: confirm whether the reported Population Pyknosed Nuclei (%) for this compound is below 20%, equality not counting. compound: CN1CCC(=C2c3ccccc3CC(=O)c3sccc32)CC1.O=C(O)/C=C/C(=O)O [KETOTIFEN FUMARATE]
Met

Lab note: confirm whether the reported Population Pyknosed Nuclei (%) for this compound is below 20%, equality not counting. compound: `O=C1NC(=O)C(c2cnc3ccccn23)=C1c1cn2c3c(cc(F)cc13)CN(C(=O)N1CCCCC1)CC2`
Not met

Lab note: confirm whether the reported Population Pyknosed Nuclei (%) for this compound is below 20%, equality not counting. compound: CCOC(=O)c1c(C)[nH]c2ccc3c(c12)CN1CCc2cc(OC)ccc2C1O3 (stereo unspecified)
Not met

Lab note: confirm whether the reported Population Pyknosed Nuclei (%) for this compound is below 20%, equality not counting. compound: `CCc1cccc(CC)c1NC(=O)c1nn(C)c2c1CCc1cnc(Nc3ccc(C(=O)NC4CCN(C)CC4)cc3OC(F)(F)F)nc1-2`
Not met

Lab note: confirm whether the reported Population Pyknosed Nuclei (%) for this compound is below 20%, equality not counting. compound: `CCOc1cc2ncc(C#N)c(Nc3ccc(OCc4ccccn4)c(Cl)c3)c2cc1NC(=O)/C=C/CN(C)C`
Met

Lab note: confirm whether the reported Population Pyknosed Nuclei (%) for this compound is below 20%, equality not counting. compound: `O=C1N/C(=N/c2ccccc2F)S/C1=C\c1ccc(C(=O)O)cc1`
Met

Lab note: confirm whether the reported Population Pyknosed Nuclei (%) for this compound is below 20%, equality not counting. compound: `C=C1/C(=C\C=C2/CCC[C@]3(C)[C@@H]([C@H](C)/C=C/[C@H](C)C(C)C)CC[C@@H]23)C[C@@H](O)C[C@@H]1O`
Met

Lab note: confirm whether the reported Population Pyknosed Nuclei (%) for this compound is below 20%, equality not counting. compound: `CCCn1c(=O)c2[nH]c(-c3cnn(Cc4cccc(C(F)(F)F)c4)c3)nc2n(CC)c1=O`
Met

Lab note: confirm whether the reported Population Pyknosed Nuclei (%) for this compound is below 20%, equality not counting. compound: `O=C(Nc1ccc(-c2ccnc(Nc3ccc(N4CCOCC4)cc3)n2)cc1)[C@@H]1CCCN1`
Met

Lab note: confirm whether the reported Population Pyknosed Nuclei (%) for this compound is below 20%, equality not counting. compound: `Cl.Oc1ccc2c3c1O[C@H]1c4[nH]c5c(c4C[C@@]4(O)[C@@H](C2)N(CC2CC2)CC[C@]314)C[C@@]1(O)[C@H]2Cc3ccc(O)c4c3[C@@]1(CCN2CC1CC1)[C@H]5O4`
Met

Lab note: confirm whether the reported Population Pyknosed Nuclei (%) for this compound is below 20%, equality not counting. compound: `CCOc1cc(C(=O)N2CCC(N3CCN(C)CC3)CC2)ccc1Nc1ncc2c(n1)N(C1CCCC1)c1ccccc1C(=O)N2C`
Not met

Lab note: confirm whether the reported Population Pyknosed Nuclei (%) for this compound is below 20%, equality not counting. compound: `O=C(Nc1ccc(-n2nc(-c3cccnc3)cc2C(F)(F)F)cn1)c1ccc(-c2ccccc2)c(F)c1`
Met

Lab note: confirm whether the reported Population Pyknosed Nuclei (%) for this compound is below 20%, equality not counting. compound: CN1C2CCC1CC(OC(c1ccc(F)cc1)c1ccc(F)cc1)C2.Cl (stereo unspecified)
Met

Lab note: confirm whether the reported Population Pyknosed Nuclei (%) for this compound is below 20%, equality not counting. compound: `Cc1ccc(C(=O)Nc2cccc(C(F)(F)F)c2)cc1Nc1nc(-c2cccnc2)nc2c1cnn2C`
Not met

Lab note: confirm whether the reported Population Pyknosed Nuclei (%) for this compound is below 20%, equality not counting. compound: `CCN1CCN(Cc2ccc(Nc3ncc(F)c(-c4cc(F)c5nc(C)n(C(C)C)c5c4)n3)nc2)CC1.CS(=O)(=O)O`
Not met

* * *

- Tested on: Fibroblast
- method: Multiplex assay against human fibroblast
- Assay type: toxicity, cell-based
- measurement-parameters: 12 h, 1 µM, compound concentration 1 uM, replicate 2
property-name: Population Pyknosed Nuclei (%)
Reply with just the number (in %).

// query Population Pyknosed Nuclei (%) value for entry `Cc1ccc2nc(NCCN)c3ncc(C)n3c2c1.O=C(O)C(F)(F)F.O=C(O)C(F)(F)F`
10

// query Population Pyknosed Nuclei (%) value for entry `Cc1cn(-c2cc(NC(=O)c3ccc(C)c(Nc4nccc(-c5cccnc5)n4)c3)cc(C(F)(F)F)c2)cn1`
11

// query Population Pyknosed Nuclei (%) value for entry `NC(=O)c1cccc(-c2cc(Nc3ccc(OC(F)(F)F)cc3)ncn2)c1`
9

// query Population Pyknosed Nuclei (%) value for entry `Cc1cc(C)c(S(=O)(=O)N(Cc2ccc(-c3cccc(S(C)(=O)=O)c3)cc2)Cc2ccc(C(F)(F)F)o2)c(C)c1`
3

* * *

- System: Fibroblast
- method: Multiplex assay against human fibroblast
- Assay type: toxicity, cell-based
- measurement-parameters: 12 h, 1 µM, compound concentration 1 uM, replicate 2
Response field class: string, computed from recorded Total Cell Count by ranges low class = under 70, middle class = from 70 up to 80, high class = 80 and over

Which of the defined bands does the recorded Total Cell Count of CN1CCN(C(=O)C(C)(C)c2ccc(C(=O)Nc3cn4cc(-c5cc(C(C)(C)C)cc(C(C)(C)C)c5)ccc4n3)cc2)CC1 [T3-CLK-N] sit within?
high class

Which of the defined bands does the recorded Total Cell Count of COc1ccc(-c2ccc3c(N4CCOCC4)nc(N4C[C@@H](C)O[C@@H](C)C4)nc3n2)cc1CO [Ku-0063794] sit within?
high class

Which of the defined bands does the recorded Total Cell Count of O=C(Cc1ccc(-c2ccc(OCCN3CCOCC3)cc2)cn1)NCc1ccccc1 [TIRBANIBULIN] sit within?
high class

Which of the defined bands does the recorded Total Cell Count of `CCN1CCN(Cc2ccc(Nc3ncc(F)c(-c4cc(F)c5nc(C)n(C(C)C)c5c4)n3)nc2)CC1.CS(=O)(=O)O` sit within?
middle class

Which of the defined bands does the recorded Total Cell Count of `CCc1cccc(CC)c1NC(=O)c1nn(C)c2c1CCc1cnc(Nc3ccc(C(=O)NC4CCN(C)CC4)cc3OC(F)(F)F)nc1-2` sit within?
low class

Which of the defined bands does the recorded Total Cell Count of CCN1CCN(c2ccc(Nc3cc(N(C)C(=O)Nc4c(Cl)c(OC)cc(OC)c4Cl)ncn3)cc2)CC1 [INFIGRATINIB] sit within?
high class

Which of the defined bands does the recorded Total Cell Count of `Cl.Oc1ccc2c3c1O[C@H]1c4[nH]c5c(c4C[C@@]4(O)[C@@H](C2)N(CC2CC2)CC[C@]314)C[C@@]1(O)[C@H]2Cc3ccc(O)c4c3[C@@]1(CCN2CC1CC1)[C@H]5O4` sit within?
high class

Which of the defined bands does the recorded Total Cell Count of O=C1NC(=O)C(c2cnc3ccccn23)=C1c1cn2c3c(cc(F)cc13)CN(C(=O)N1CCCCC1)CC2 [LY-2090314] sit within?
high class

Which of the defined bands does the recorded Total Cell Count of `NC(=O)c1cccc(-c2cc(Nc3ccc(OC(F)(F)F)cc3)ncn2)c1` sit within?
high class

Which of the defined bands does the recorded Total Cell Count of CN1CCC(=C2c3ccccc3CC(=O)c3sccc32)CC1.O=C(O)/C=C/C(=O)O [KETOTIFEN FUMARATE] sit within?
low class

Which of the defined bands does the recorded Total Cell Count of `Cl.O=C(c1ccc(Nc2nccc(-c3cc4ccccc4s3)n2)cc1)N1CCC(N2CCCC2)CC1` sit within?
high class

Which of the defined bands does the recorded Total Cell Count of Cn1nc(C(F)(F)F)cc1-c1cnc(N2CCc3cc(S(=O)(=O)Nc4c(F)cc(Cl)cc4F)cc(N4CCCC4=O)c32)nc1 [TP-020] sit within?
low class

Which of the defined bands does the recorded Total Cell Count of CCOC(=O)c1c(C)[nH]c2ccc3c(c12)CN1CCc2cc(OC)ccc2C1O3 (configuration not stated) sit within?
low class

Which of the defined bands does the recorded Total Cell Count of `COc1ccc(S(=O)(=O)N(CCO)c2ccccc2CN(C)C/C=C/c2ccc(Cl)cc2)cc1.O=P(O)(O)O` sit within?
middle class

Which of the defined bands does the recorded Total Cell Count of `Cc1ccc(C(=O)Nc2cccc(C(F)(F)F)c2)cc1Nc1nc(-c2cccnc2)nc2c1cnn2C` sit within?
high class

Which of the defined bands does the recorded Total Cell Count of `CCc1cccc(CC)c1NC(=O)c1nn(C)c2c1CCc1cnc(Nc3ccc(N4CCN(C)CC4)cc3OC)nc1-2` sit within?
low class

Which of the defined bands does the recorded Total Cell Count of CCCn1c(=O)c2[nH]c(-c3cnn(Cc4cccc(C(F)(F)F)c4)c3)nc2n(CC)c1=O [GS 6201] sit within?
middle class

Which of the defined bands does the recorded Total Cell Count of `CCn1c(=O)c(-c2ccc(-c3cncs3)cc2Cl)cc2cnc(Nc3ccc(N4CCN(C)CC4)cc3)nc21` sit within?
middle class
